What apparent KD of MS2 coat protein was measured for each of the following?
Test system: MS2 coat protein
Test: apparent KD of MS2 coat protein; higher = weaker reporter binding
Conditions: Eterna round: R107; input ligand: theophylline 2 mM
# do not omit the unit; it follows the number

Examples with answers:
[[record]]
primary_sequence = "AGUAGACACGCGGCCGCCACUUGAGGAUCACCCAAGUGGUGUGUACUUGAAAACAAGUGCACAUCAAGGACCGGGCGUGUCUACA [Omei Tryp B SS D v3]"
quantity = "apparent KD of MS2 coat protein"
result = "7.12 nM"

[[record]]
primary_sequence = "UGUAUGGACUGAAGGAGCGGUAGAUAGCUUGAGGAUCACCCAAGUAAUAAGGCGAAAGCCUACCAGGUAGGUCGCAGUCCAUACU"
quantity = "apparent KD of MS2 coat protein"
result = "26.9 nM"

[[record]]
primary_sequence = "AACAUGAGGAUCACCCAUGUCUGAACUGAAGGAGCGCUAAAUAAGGCAGGUAGGUCGCGGAAUUUUGUGUACAUAUGUAUAUGGG [9.H]"
quantity = "apparent KD of MS2 coat protein"
result = "35.8 nM"

[[record]]
primary_sequence = "AUGUCGUUGAAUAUAGCGGCUUGGAGUGAUACCAGUAUGAUCCAAUACCCUUGGCAGCAUUACAUGAGGAUCACCCAUGUUCCAG [SSTheo A #24]"
quantity = "apparent KD of MS2 coat protein"
result = "53.4 nM"

[[record]]
primary_sequence = "UAUCGACACUGAAGGAGCGAGAUGACAAACAUGAGGAUCACCCAUGUUAUGGGUUGUUAAUCUCAGGUAGGUCGCAGUGGUCGCA [Same State Arginine B GF 18]"
quantity = "apparent KD of MS2 coat protein"
result = "108 nM"


Look up apparent KD of MS2 coat protein for the entries below, preserving their order.
1. UACUUGCGGUCGGCCGCCACUACGAGGCAGACCUUCACAUGAGGAUCACCCAUGUAGUCGGCUAGUAGGACCGGGAUGGCAUAAA [Solasoce]
2. ACGUCCGGAUUACUCGUGGGCAUGGUCGAUACCAGUAUUUUAAUCUACCCUUGGCAGCGACAUGAGGAUCACCCAUGUGCGAUGA [XTheo A #20]
3. ACAUCUUGUACGGCCGCCACUAACAGAUUCAGCGUCGGAGCCAACUACAUGAGGAUCACCCAUGUUAGGACCGGGUACUGUCCAC [theeternabot_exclusion_MS2_Trp_B_47]
4. AACAUGAGGAUCACCCAUGUCCUCAUGAUUCGAGGACCGGUACGGCCGCCACUCGGUCCUCGCGAGGAGGAGUCAAAGACUCCAA [Omei Trp A SS A v2]
5. GCUAGUGGCAGAAGGAGCGGCAUACUUGCAAGUGACAUGAGGAUCACCCAUGUAAGGGAAUGCCAGGUAGGUCGCUGCCACUAGC [EAB NP+V+V2 #1 +-Same Structure]
6. AGCCCGGGAGCGGCCGCCACUGGAGGCUUAGCGCGACAUGAGGAUCACCCAUGUGUGCCCGGCGUUAGGACCGGGCUCGCGUGGU [#1 Same State - Tryptophan B Attempt #22 (HarryS)]

stdout:
1. 41.8 nM
2. 41.3 nM
3. 21 nM
4. 968 nM
5. 38.7 nM
6. 46.1 nM

stdin: Fill in the blank: the reported apparent KD of MS2 coat protein of GGCCAGGCAGCGGCCGCCACUUAGUGGGCCGAAUGUCCUUUGCUGAACAUGAGGAUCACCCAUGUAAGGACCGGGCUGUUCCGCA [theeternabot_exclusion_MS2_Trp_B_30] is ____.
stdout: 41.5 nM
